Just for reference, patent US12643889B2 is where these values come from.

Listing: Cmax of selected compounds
- PROTOCOL SUMMARY: Rat pharmacokinetic assay
- Type: in vivo, male SD rats
- SETTINGS: male, SD, plasma; rat; oral gavage administration 5 mg/kg
Number in ng/mL, nothing else.

C[C@H](NC(=O)c1c(C(F)F)nn(C)c1Oc1cccc(C(F)(F)F)c1)c1ccc(C(=O)O)cc1 [Control Compound, reference compound] :: 1100

For the next question, use this compound.
Query: # Cmax lookup, item C[C@H](NC(=O)c1c(C(F)F)nn(C)c1Oc1cccc(C(C)(F)F)c1)c1ccc(C(=O)O)cc1
Response: 993

###

- PROTOCOL SUMMARY: Rat pharmacokinetic assay
- Type: in vivo, male SD rats
- SETTINGS: male, SD, plasma; rat; intravenous administration 1 mg/kg; read-out: Vz
READOUT NAME: Vd (L/kg)
Number in L/kg, nothing else.

Query: # Vd lookup, item C[C@H](NC(=O)c1c(C(F)F)nn(C)c1Oc1cccc(C(C)(F)F)c1)c1ccc(C(=O)O)cc1
Response: 7.66

Query: # Vd lookup, item C[C@H](NC(=O)c1c(C(F)F)nn(C)c1Oc1cccc(OCC(F)(F)F)c1)c1ccc(C(=O)O)cc1
Response: 2.72

Query: # Vd lookup, item C[C@H](NC(=O)c1c(C(F)F)nn(C)c1Oc1cccc(C(F)(F)F)c1)c1ccc(C(=O)O)cc1 [Control Compound, reference compound]
Response: 9.55

###

- PROTOCOL SUMMARY: Rat pharmacokinetic assay
- Type: in vivo, male SD rats
- SETTINGS: male, SD, plasma; rat; intravenous administration 1 mg/kg
READOUT NAME: half-life (h)
Number in h, nothing else.

Recorded half-life, per entry:
C[C@H](NC(=O)c1c(C(F)F)nn(C)c1Oc1cccc(OCC(F)(F)F)c1)c1ccc(C(=O)O)cc1 :: 9.02
C[C@H](NC(=O)c1c(C(F)F)nn(C)c1Oc1cccc(C(F)(F)F)c1)c1ccc(C(=O)O)cc1 [Control Compound, reference compound] :: 10.9

For the next question, use this compound.
Query: # half-life lookup, item C[C@H](NC(=O)c1c(C(F)F)nn(C)c1Oc1cccc(C(C)(F)F)c1)c1ccc(C(=O)O)cc1
Response: 9.3

###

- TARGET OR TEST SYSTEM: human EP4 receptor (Homo sapiens)
- Sequence (P35408 whole entry): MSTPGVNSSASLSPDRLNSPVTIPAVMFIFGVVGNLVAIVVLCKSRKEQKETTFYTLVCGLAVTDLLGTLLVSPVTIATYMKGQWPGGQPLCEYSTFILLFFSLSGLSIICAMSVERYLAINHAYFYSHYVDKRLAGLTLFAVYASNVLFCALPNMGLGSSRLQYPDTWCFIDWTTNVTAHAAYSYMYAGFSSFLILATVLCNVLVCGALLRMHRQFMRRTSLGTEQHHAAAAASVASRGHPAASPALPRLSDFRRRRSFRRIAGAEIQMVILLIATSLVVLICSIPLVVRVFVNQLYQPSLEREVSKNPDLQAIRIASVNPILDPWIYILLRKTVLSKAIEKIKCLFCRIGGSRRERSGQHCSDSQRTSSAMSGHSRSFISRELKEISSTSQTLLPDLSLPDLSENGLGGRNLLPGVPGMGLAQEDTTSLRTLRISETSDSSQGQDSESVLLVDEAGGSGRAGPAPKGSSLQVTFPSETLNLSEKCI
- PROTOCOL SUMMARY: Assay of calcium current inhibition on EP4 receptor (FLIPR, 293 cells)
- Assay type: cell-based
- Design: expressed in transfected cells; host or cells: 293 cells
- SETTINGS: 293 cells overexpressing human EP4; PGE2 at EC80; FLIPR
pIC50: −log10 of the molar value.
Parameter threshold = 8. Response is Y when pIC50 meets or exceeds it, else N.

Study these solved cases before continuing.
C[C@H](NC(=O)c1c(C(F)F)nn(C)c1Oc1cccc(C2CC2)c1)c1ccc(C(=O)O)cc1 :: Y
CC(C)c1cccc(Oc2c(C(=O)N[C@@H](C)c3ccc(C(=O)O)cc3)c(C(F)F)nn2C)c1 :: Y
CCc1cc(Oc2c(C(=O)N[C@@H](C)c3ccc(C(=O)O)cc3)c(C(F)F)nn2C)ccc1C :: N
CCc1cc(F)cc(Oc2c(C(=O)N[C@@H](C)c3ccc(C(=O)O)cc3)c(C(F)F)nn2C)c1 :: N

Then this compound:
Query: Reported pIC50 at or above 8? CC(c1cccc(Oc2c(C(=O)N[C@@H](C)c3ccc(C(=O)O)cc3)c(C(F)F)nn2C)c1)C(F)(F)F (some centres unmarked)
Response: N
